test system: 695427-040-R-J1-PDC complex spheroids, viability percent T/C; experiment: Anticancer human tumor 695427-040-R-J1-PDC patient-derived colon adenocarcinoma cell line growth inhibition [GQUAD]; conditions: second compound 0.1 µM; first compound 1 µM; active = viability on the fitted dose curve at most 10% of control; inactive = the rest
Outcomes you can answer with include only these: class 1 (active), class 0 (inactive)

Here are 5 molecules together with their reported answers.
- Molecule: "Nc1ccn(C2OC(CO)C(O)C2(F)F)c(=O)n1 (centres undefined) + Cc1cnc(CNC(=O)c2c(=O)c3ccc(N4CCCN(C)CC4)nc3n3c2sc2ccccc23)cn1"
  Study target: "695427-040-R-J1-PDC complex spheroids, viability percent T/C"
  Category label: "class 0"
- Molecule: "O=C(c1cc(Cc2n[nH]c(=O)c3ccccc23)ccc1F)N1CCN(C(=O)C2CC2)CC1 + Cc1[nH]c2ccc(F)cc2c1-c1nc2c3cccnc3c3ncccc3c2[nH]1"
  Study target: "695427-040-R-J1-PDC complex spheroids, viability percent T/C"
  Category label: "class 0"
- Molecule: "CC(=O)O[C@H]1C(=O)[C@@]2(C)[C@H]([C@H](OC(=O)c3ccccc3)[C@]3(O)C[C@H](OC(=O)[C@H](O)[C@@H](NC(=O)c4ccccc4)c4ccccc4)C(C)=C1C3(C)C)[C@]1(OC(C)=O)CO[C@@H]1C[C@@H]2O + Cc1[nH]c2ccc(F)cc2c1-c1nc2c3cccnc3c3ncccc3c2[nH]1"
  Study target: "695427-040-R-J1-PDC complex spheroids, viability percent T/C"
  Category label: "class 1"
- Molecule: "Cc1cccc(N(C)C(=O)C2C(O)CCN2c2nc(C)cc(C(F)(F)F)c2C#N)c1 (centres undefined) + Cc1cnc(CNC(=O)c2c(=O)c3ccc(N4CCCN(C)CC4)nc3n3c2sc2ccccc23)cn1"
  Study target: "695427-040-R-J1-PDC complex spheroids, viability percent T/C"
  Category label: "class 0"
- Molecule: "COc1ccc([C@@H](O)c2cc(-c3ncnc4cc(N5CCOCC5)ccc34)c(F)cc2Cl)nn1 + Cc1cnc(CNC(=O)c2c(=O)c3ccc(N4CCCN(C)CC4)nc3n3c2sc2ccccc23)cn1"
  Study target: "695427-040-R-J1-PDC complex spheroids, viability percent T/C"
  Category label: "class 0"

Enquiry: For Nc1ccn(C2OC(CO)C(O)C2(F)F)c(=O)n1 (centres undefined) + CN(C)c1ccc(Nc2c3ccc(NC(=O)CCN4CCCC4)cc3nc3cc(NC(=O)CCN4CCCC4)ccc23)cc1 , which call appears in the assay record?
Return: class 0

Enquiry: Dear all, I need the recorded test outcome for CC1COCCN1c1cc(-c2ccnn2C)c2ccnc(-c3ccn[nH]3)c2n1 (centres undefined) + Cc1cnc(CNC(=O)c2c(=O)c3ccc(N4CCCN(C)CC4)nc3n3c2sc2ccccc23)cn1 , thank you.
Return: class 0

---

system: 695427-040-R-J1-PDC complex spheroids, viability percent T/C; test: Anticancer human tumor 695427-040-R-J1-PDC cell line growth inhibition [GQUAD]; details: second compound 0.1 µM; first compound 0.1 µM; stronger effect = lower value;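 also: spheroids exposed to compounds for seven days before readout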
Measure name: viability, T/C (%)
Enter your answer as a number in %; do not include the unit.

Some entries whose results are on file:
- Compound: "CC1COCCN1c1cc(C2(O)CC3CCC(C2)O3)c2cnn(-c3ccn[nH]3)c2n1 (stereo not given) + Cc1[nH]c2ccc(F)cc2c1-c1nc2c3cccnc3c3ncccc3c2[nH]1"
  Measure name: "viability, T/C"
  Unit string: "%"
  Recorded value: 77.5
- Compound: "O=c1[nH]cc(F)c(=O)[nH]1 + Cc1cnc(CNC(=O)c2c(=O)c3ccc(N4CCCN(C)CC4)nc3n3c2sc2ccccc23)cn1"
  Measure name: "viability, T/C"
  Unit string: "%"
  Recorded value: 79.4
- Compound: "C=CC(=O)N1CCN(c2nc(=O)n(-c3c(C)ccnc3C(C)C)c3nc(-c4c(O)cccc4F)c(F)cc23)C(C)C1 (stereo not given) + CN(C)c1ccc(Nc2c3ccc(NC(=O)CCN4CCCC4)cc3nc3cc(NC(=O)CCN4CCCC4)ccc23)cc1"
  Measure name: "viability, T/C"
  Unit string: "%"
  Recorded value: 95
- Compound: "Cc1cccc(N(C)C(=O)C2C(O)CCN2c2nc(C)cc(C(F)(F)F)c2C#N)c1 (stereo not given) + CN(C)c1ccc(Nc2c3ccc(NC(=O)CCN4CCCC4)cc3nc3cc(NC(=O)CCN4CCCC4)ccc23)cc1"
  Measure name: "viability, T/C"
  Unit string: "%"
  Recorded value: 92.3

Below: the item to evaluate.
response.value for C=CCn1c(=O)c2cnc(Nc3ccc(N4CCN(C)CC4)cc3)nc2n1-c1cccc(C(C)(C)O)n1 + Cc1cnc(CNC(=O)c2c(=O)c3ccc(N4CCCN(C)CC4)nc3n3c2sc2ccccc23)cn1 (field: viability, T/C) = 71
